Cited source: patent US20130116277A1

Experiment: Liver microsome incubation (HLM Phase I and Phase I + II), LC-MS/MS
Format: in vitro ADME, human
Settings: human, human liver microsomes, HLM Phase I + II; read-out: HLM Phase I + II CLint
Procedure: Stock solutions of prespective AKR1C3 inhibitors were prepared in DMSO at 5 mM and were incubated with liver microsomes (0.1 mg/mL). Incubations were conducted at 37° C. in a shaking water bath for 10 minutes (microsomes). Incubation durations were selected based on time course study (microsomes) or published literature (recombinant enzymes). Prepared samples were analyzed using LC-MS/MS.
measurement.kind: log10(microsomal CLint) (log10 of the value in µL/min/mg)

{"molecule": "COc1ccc(-c2cn(-c3ccc(O)cc3)c(=O)c3c(O)cc(O)cc23)cc1 [Compound 15g]", "log10(microsomal CLint)": 2.63}
{"molecule": "CS(=O)(=O)c1ccc(-c2cn(-c3ccc(O)cc3)c(=O)c3ccc(O)cc23)cc1 [Compound 37]", "log10(microsomal CLint)": 2.26}
{"molecule": "O=c1c2ccc(O)cc2c(-c2ccc(O)cc2)cn1-c1ccc(CBr)cc1 [Compound 11]", "log10(microsomal CLint)": 2.14}
{"molecule": "O=c1c2ccc(O)cc2c(-c2ccc(C(F)(F)F)cc2)cn1-c1ccc(O)cc1 [Compound 13]", "log10(microsomal CLint)": 1.23}
{"molecule": "O=c1c2ccc(O)cc2c(-c2ccccc2)cn1-c1ccc(O)cc1 [Compound 15a]", "log10(microsomal CLint)": 1.47}
{"molecule": "COc1ccc(-c2cn(-c3ccc(O)cc3)c(=O)c3ccc(O)cc23)cc1 [Compound 15b]", "log10(microsomal CLint)": 2.27}
{"molecule": "O=c1c2ccc(O)cc2c(-c2ccc(C(F)(F)F)cc2)cn1-c1ccc(C(F)(F)F)cc1 [Compound 30]", "log10(microsomal CLint)": 1.94}
{"molecule": "O=c1c2c(O)cc(O)cc2c(-c2ccccc2)cn1-c1ccc(O)cc1 [Compound 15h]", "log10(microsomal CLint)": 1.78}
{"molecule": "O=c1c2c(O)cc(O)cc2c(Br)cn1-c1cccc(O)c1 [ZW-315-047]", "log10(microsomal CLint)": 2.65}

----------
Target: ER-α (Homo sapiens)
Sequence (P03372 311-547 limits assumed): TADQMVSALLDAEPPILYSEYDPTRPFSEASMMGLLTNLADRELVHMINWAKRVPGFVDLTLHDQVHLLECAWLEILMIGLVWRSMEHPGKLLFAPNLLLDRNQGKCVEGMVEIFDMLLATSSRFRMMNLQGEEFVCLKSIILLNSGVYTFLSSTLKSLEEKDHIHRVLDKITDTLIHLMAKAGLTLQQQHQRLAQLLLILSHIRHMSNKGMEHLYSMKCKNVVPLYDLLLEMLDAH
Assay: ER-α ligand binding domain competitive binding with [3H]Estradiol

{"compound": "O=c1c2ccc(O)cc2c(-c2ccc(C(F)(F)F)cc2)cn1-c1ccc(C(F)(F)F)cc1", "experimental.target": "ER-α (Homo sapiens)", "Ki": "> 1510 nM"}
{"compound": "COc1ccc(-c2cn(-c3ccc(O)cc3)c(=O)c3ccc(O)cc23)cc1 [Compound 15b]", "experimental.target": "ER-α (Homo sapiens)", "Ki": "2100 nM"}
{"compound": "O=C(O)/C=C/c1cn(-c2ccc(O)cc2)c(=O)c2c(O)cc(O)cc12 [Compound 15l]", "experimental.target": "ER-α (Homo sapiens)", "Ki": "> 1510 nM"}
{"compound": "COc1ccc(-c2cn(-c3ccc(CO)cc3)c(=O)c3ccc(OC)cc23)cc1", "experimental.target": "ER-α (Homo sapiens)", "Ki": "> 1510 nM"}

----------
target: AKR1C3 (Homo sapiens); test: Purified AKR1C3 enzyme assay, [14C]-A'dione to testosterone, TLC based; format: biochemical; set-up: GST (N); made in house; host or cells: bacterial culture, IPTG induced (E. coli BL21-DE3 is named only for the crystallography preparation); conditions: read-out: % inhibition from control HSD-5 (10 uM)
Lab note: class by inhibition at 10 µM, see low interval: < 5%; middle interval: ≥ 5% and < 30%; high interval: ≥ 30%

{"compound": "COc1ccc(-c2cn(-c3ccc(O)cc3)c(=O)c3c(O)cc(O)cc23)cc1 [Compound 15g]", "assigned.category": "high interval"}
{"compound": "O=c1c2ccc(O)cc2c(-c2ccc(O)cc2)cn1-c1ccc(CBr)cc1 [Compound 11]", "assigned.category": "high interval"}
{"compound": "O=c1c2ccc(O)cc2c(-c2ccc(C(F)(F)F)cc2)cn1-c1ccc(O)cc1 [Compound 13]", "assigned.category": "high interval"}
{"compound": "O=c1c2c(O)cc(O)cc2c(-c2ccccc2)cn1-c1ccc(O)cc1 [Compound 15h]", "assigned.category": "low interval"}
{"compound": "COC(=N)c1cc(O)cc2c(-c3ccc(C(F)(F)F)c(F)c3)cn(-c3ccc(O)cc3)c(=O)c12 [Compound 102A]", "assigned.category": "low interval"}
{"compound": "O=c1c2ccc(O)cc2c(-c2ccc(C(F)(F)F)cc2)cn1-c1ccc(CBr)c(O)c1 [Compound 26]", "assigned.category": "high interval"}
{"compound": "CCOC(=O)/C=C/c1cn(-c2ccc(OC)cc2)c(=O)c2c(O)cc(OC)cc12 [Compound 15j]", "assigned.category": "middle interval"}
{"compound": "NC(=O)c1cc(O)cc2c(-c3cc(F)c(F)c(F)c3)cn(-c3ccc(O)cc3)c(=O)c12 [Compound 100A]", "assigned.category": "low interval"}
{"compound": "O=c1c2ccc(O)cc2c(-c2ccc(C(F)(F)F)cc2)cn1-c1ccc(F)cc1 [Compound 34]", "assigned.category": "middle interval"}
{"compound": "O=c1c2ccc(O)cc2c(-c2ccccc2)cn1-c1ccc(O)cc1 [Compound 15a]", "assigned.category": "low interval"}
{"compound": "COc1ccc(-c2cn(-c3ccc(O)cc3)c(=O)c3ccc(O)cc23)cc1 [Compound 15b]", "assigned.category": "high interval"}
{"compound": "O=c1c2ccc(O)cc2c(-c2ccc(O)cc2)cn1-c1ccc(O)cc1 [Compound 6]", "assigned.category": "low interval"}
{"compound": "NC(=O)c1cc(O)cc2c(-c3ccc(C(F)(F)F)c(F)c3)cn(-c3ccc(O)cc3)c(=O)c12 [Compound 102B]", "assigned.category": "low interval"}
{"compound": "O=C(O)/C=C/c1cn(-c2ccc(O)cc2)c(=O)c2ccc(O)cc12 [Compound 15k]", "assigned.category": "middle interval"}
{"compound": "COc1ccc(-c2cn(-c3ccc(CO)cc3)c(=O)c3ccc(OC)cc23)cc1 [Compound 10]", "assigned.category": "middle interval"}
{"compound": "COC(=N)c1cc(O)cc2c(-c3cc(F)c(F)c(F)c3)cn(-c3ccc(O)cc3)c(=O)c12 [Compound 100]", "assigned.category": "middle interval"}
{"compound": "C/C=C/c1cn(-c2ccc(O)cc2)c(=O)c2c(O)cc(O)cc12 [Compound 15i]", "assigned.category": "middle interval"}
{"compound": "O=c1c2ccc(O)cc2c(-c2cc(F)c(F)c(F)c2)cn1-c1ccc(O)cc1 [Compound 79]", "assigned.category": "high interval"}

----------
Measured Ki values are reported for all entries that follow.
target: ER-β (Homo sapiens); experiment: ER-β ligand binding domain competitive binding with [3H]Estradiol
Sequence (Q92731 264-498 limits assumed, species assumed): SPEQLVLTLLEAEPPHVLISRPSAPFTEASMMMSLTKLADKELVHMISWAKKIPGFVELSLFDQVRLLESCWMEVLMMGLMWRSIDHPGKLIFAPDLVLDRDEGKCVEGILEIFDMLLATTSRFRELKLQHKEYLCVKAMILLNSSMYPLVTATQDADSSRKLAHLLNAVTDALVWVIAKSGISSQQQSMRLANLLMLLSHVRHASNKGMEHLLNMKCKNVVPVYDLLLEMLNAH

{"compound": "O=c1c2ccc(O)cc2c(-c2ccc(C(F)(F)F)cc2)cn1-c1ccc(CBr)c(O)c1 [Compound 26]", "experimental.target": "ER-β (Homo sapiens)", "Ki": "> 2200 nM"}
{"compound": "O=c1c2ccc(O)cc2c(-c2ccc(C(F)(F)F)cc2)cn1-c1ccc(C(F)(F)F)cc1 [Compound 30]", "experimental.target": "ER-β (Homo sapiens)", "Ki": "> 2200 nM"}
{"compound": "O=C(O)/C=C/c1cn(-c2ccc(O)cc2)c(=O)c2ccc(O)cc12 [Compound 15k]", "experimental.target": "ER-β (Homo sapiens)", "Ki": "> 220 nM"}

----------
Measured inhibition at 10 µM values are reported for all entries that follow.
Biological target: AKR1C3 (Homo sapiens)
Sequence (P42330 1-323): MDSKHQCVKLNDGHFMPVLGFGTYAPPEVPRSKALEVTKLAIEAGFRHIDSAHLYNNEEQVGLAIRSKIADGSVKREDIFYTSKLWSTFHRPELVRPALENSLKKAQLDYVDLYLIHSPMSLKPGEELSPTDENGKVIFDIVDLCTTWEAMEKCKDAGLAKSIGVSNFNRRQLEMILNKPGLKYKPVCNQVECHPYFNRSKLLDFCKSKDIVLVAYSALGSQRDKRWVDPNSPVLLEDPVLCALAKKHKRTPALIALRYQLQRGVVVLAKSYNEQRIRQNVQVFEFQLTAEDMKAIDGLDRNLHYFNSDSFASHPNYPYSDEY
Test: Purified AKR1C3 enzyme assay, [14C]-A'dione to testosterone, TLC based
Type: biochemical
Parameters: GST (N); made in house; host or cells: bacterial culture, IPTG induced (E. coli BL21-DE3 is named only for the crystallography preparation)
Conditions: read-out: % inhibition from control HSD-5 (10 uM)
measurement.kind: inhibition at 10 µM (%)

{"molecule": "O=c1c2ccc(O)cc2c(-c2ccc(C(F)(F)F)cc2)cn1-c1ccc(C(F)(F)F)cc1", "experimental.target": "AKR1C3 (Homo sapiens)", "measurement.kind": "inhibition at 10 µM", "measured.value": 30}
{"molecule": "COC(=O)c1ccc(-n2ccc3cc(O)ccc3c2=O)cc1CBr [Compound 104A]", "experimental.target": "AKR1C3 (Homo sapiens)", "measurement.kind": "inhibition at 10 µM", "measured.value": 5}
{"molecule": "O=c1c2c(O)cc(O)cc2c(Br)cn1-c1cccc(O)c1", "experimental.target": "AKR1C3 (Homo sapiens)", "measurement.kind": "inhibition at 10 µM", "measured.value": 30}
